Test system: SNB-19 CNS
Assay: NCI tumour cell line growth inhibition, 384-well format; in the data active means GI50 below about 0.43 µM; inactive means the rest
Outcomes you can answer with include only these: 1 for active, 0 for inactive

Can you look up the reported call for C[C@H]1CN(C2COC2)CCN1c1ccc(Nc2cc(-c3ccnc(N4CCn5c(cc6c5CC(C)(C)C6)C4=O)c3CO)cn(C)c2=O)nc1 for me? 0

Called result for COCCOCCOCCOCCOC(=O)OC[n+]1ccc(NC(=NCCCCCCOc2ccc(Cl)cc2)NC#N)cc1 1

What did the test return for COc1ccc(S(=O)(=O)N2CCNCC2)cc1OC ? 0

Outcome logged for N#CCNC(=O)c1ccc(-c2ccnc(Nc3ccc(N4CCOCC4)cc3)n2)cc1 in this assay: 0
